Target: T1, HLA-DQ molecule DQB1*0302 (human, UniProt P01909 24-216; P01920 33-230, limits assumed)
T1 MHC II alpha: not shown
T1 MHC II beta: not shown
Experiment Description: inhibition of radiolabeled peptide binding to purified HLA-DQ
Measurement Name: pIC50
# log scale: pIC50 equals minus log10 of the concentration in mol/L

Enquiry: Retrieve pIC50 measured for NLNIKLNMPLYIAGN [Cha o 1 (96-110) peptide NLNIKLNMPLYIAGN] and print it.
Return: 4.30
